Tested on: Sprague-Dawley rats
TEST: animal or person
Assay type: in vivo
CONDITION CONTEXT: rats
# Approximate therapeutic index listing for each entry below

Sample records with Approximate therapeutic index:
C#CCOCC(OC)(OC)C(=O)c1cncn1[C@H](C)c1ccccc1 [Compound D74] : >16.6
COC(OC)C(=O)c1cc(F)nn1[C@H](C)c1ccccc1 [Compound D25] : >10.2
COC(=O)C(=O)c1ccnn1[C@H](C)c1ccccc1 [Compound D11] : >4.6
COC(OC)(OC)C(=O)c1c(F)cnn1[C@H](C)c1ccccc1 [Compound D29] : >4.1
COC(=O)C(=O)c1cncn1[C@H](C)c1ccccc1 [Compound D80] : >2.9
CCOC(OC)(OCC)C(=O)c1cncn1[C@H](C)c1ccccc1 [Compound D79] : >6.4
COC(OC)(OC(C)C)C(=O)c1ccnn1[C@H](C)c1ccccc1 [Compound D4] : >5.0
COC(OC)(OC)C(=O)c1cncn1[C@H](C)c1ccccc1 [Compound D77] : >21.0

Now take the following compound into account.
Entry under review: C=CCOCC(OC)(OC)C(=O)c1cncn1[C@H](C)c1ccccc1 [Compound D75] . Reported Approximate therapeutic index? >5.4

====

System: Sprague-Dawley rats
TEST: Pharmacological effect and adverse reactions under the equivalent dose (2ED50), Group C compounds
Assay type: in vivo
CONDITION CONTEXT: equivalent dose (2ED50), number of rats of n = 8
QUANTITY NAME: Adverse reaction: Slower breathing, Tetany convulsion
# output: bare number, no unit

C[C@H](c1ccccc1)n1cncc1C(=O)COC(C)(C)C [Compound C45] : 0
CC#CCOCC(=O)c1c(F)ncn1[C@H](C)c1ccccc1 [Compound C69] : 0
CCSCC(=O)c1ccnn1[C@H](C)c1ccccc1 [Compound C9] : 0
C[C@H](c1ccccc1)n1cncc1C(=O)COCCC1CCC1 [Compound C40] : 1

Read the next record carefully.
Which Adverse reaction: Slower breathing, Tetany convulsion value is on record for C[C@H](c1ccccc1)n1cnc(F)c1C(=O)COCCC1CCC1 [Compound C74] ? 0

====

Test system: Sprague-Dawley rats
TEST: animal or person
CONDITION CONTEXT: Rattus norvegicus, LORR in rats, tail vein; brackets = 95% confidence limit
QUANTITY NAME: ED50

Illustrative cases are given below, each with its answer.
CCOC(=O)c1c(I)nnn1[C@H](C)c1ccccc1 [Compound B127] : 0.5 to 1 mg/kg
CCOC(=O)c1c(Cl)nnn1[C@H](C)c1ccccc1 [Compound B65] : 0.5 to 1 mg/kg
CC(=O)C1=C(OC(=O)c2cnnn2[C@H](C)c2ccccc2)CCCC1 [Compound B15] : 0.5 to 1 mg/kg

Entry under review: C=CC(CC)OC(=O)c1cnnn1[C@H](C)c1ccccc1 (stereo partly drawn) [Compound B13] . Reported ED50? 0.5 to 1 mg/kg

Given CCOC(=O)c1c(C(F)(F)F)nnn1[C@H](C)c1ccccc1 [Compound B145] , state its recorded ED50. 2 to 10 mg/kg

Fill in the blank: the reported ED50 of C[C@H](c1ccccc1)n1nnc(Br)c1C(=O)OC1CC1 [Compound B116] is ____. 1 to 2 mg/kg

For CC(C)O[C@H]1C[C@@H](OC(=O)c2cnnn2[C@H](C)c2ccccc2)C1 [Compound B26] , what is its reported ED50? 1 to 2 mg/kg

I'd like to know its ED50. The molecule in question is COC(=O)C1(OC(=O)c2c(Br)nnn2[C@H](C)c2ccccc2)CC1 [Compound B121] 2 to 10 mg/kg

Would you mind telling me what ED50 value was observed for COC(=O)C1=C(OC(=O)c2c(F)nnn2[C@H](C)c2ccccc2)CCC1 [Compound B36] ? 0.5 to 1 mg/kg

====

System: Sprague-Dawley rats
TEST: animal or person
CONDITION CONTEXT: rats
QUANTITY NAME: Approximate therapeutic index

CC(=O)C1=C(OC(=O)c2c(F)c(F)nn2[C@H](C)c2ccccc2)CCC1 : >7
CC(C)c1cccc(C(C)C)c1O [Propofol, propofol, reference compound] : 5
CO[C@H]1C[C@@H](OC(=O)c2c(F)c(F)nn2[C@H](C)c2ccccc2)C1 : >12
C[C@H](c1ccccc1)n1nc(F)cc1C(=O)OC(C)(C)C : >7
CC(=O)C1=C(OC(=O)c2ccnn2[C@H](C)c2ccccc2)CCC1 : >3

# returns recorded Approximate therapeutic index (system: Sprague-Dawley rats) for `C[C@H](c1ccccc1)n1nccc1C(=O)OC1CCC1` >11

Can you look up Approximate therapeutic index on Sprague-Dawley rats for `CC#CC1(OC(=O)c2ccnn2[C@H](C)c2ccccc2)COC1` ? >5

Provide the documented Approximate therapeutic index with Sprague-Dawley rats as the system for `CC#CCOC(=O)c1c(F)cnn1[C@H](C)c1ccccc1` >100

Please provide the recorded Approximate therapeutic index for `CCC(CC)OC(=O)c1ccnn1[C@H](C)c1ccccc1` , tested on Sprague-Dawley rats. >16

Give recorded Approximate therapeutic index with Sprague-Dawley rats for the following molecule: `C=C=CC1(OC(=O)c2c(C(F)(F)F)cnn2[C@H](C)c2ccccc2)COC1` >6

====

The following compounds are listed with their measured Adverse reaction: Systemic stiffness, Convulsions, Opisthotonus values.
System: Sprague-Dawley rats
TEST: Pharmacological effect and adverse reactions under the equivalent dose (2ED50), Group C compounds
Format: in vivo
CONDITION CONTEXT: equivalent dose (2ED50), number of rats of n = 8
The answer should be a number; do not append a unit.

Answered cases to consult:
C[C@H](c1ccccc1)n1cnc(F)c1C(=O)COCC1CCC1 [Compound C70] : 0
CC1OC1C(=O)c1cncn1[C@H](C)c1ccccc1 (some centres unmarked) [Compound C56] : 0
C[C@H](c1ccccc1)n1cnc(F)c1C(=O)COCC1CC1 [Compound C76] : 0
C[C@H](c1ccccc1)n1cncc1C(=O)COCCC1CCC1 [Compound C40] : 1

Please provide the recorded Adverse reaction: Systemic stiffness, Convulsions, Opisthotonus for CC#CCOCC(=O)c1cncn1[C@H](C)c1ccccc1 [Compound C27] , tested on Sprague-Dawley rats. 1

====

Tested on: Sprague-Dawley rats
TEST: Pharmacological effect and adverse reactions under the equivalent dose (2ED50), Group C compounds
Type: in vivo
CONDITION CONTEXT: equivalent dose (2ED50), number of rats of n = 8
QUANTITY NAME: Adverse reaction: Systemic stiffness, Convulsions, Opisthotonus
Provide a numeric answer; units are not to be included.

Please review the following examples before continuing.
CCOCC(=O)c1ccnn1[C@H](C)c1ccccc1 [Compound C2] : 0
C#CCOCC(=O)c1c(F)ncn1[C@H](C)c1ccccc1 [Compound C73] : 2
COCC(=O)c1c(F)ncn1[C@H](C)c1ccccc1 [Compound C71] : 0
CC#CCOCC(=O)c1ccnn1[C@H](C)c1ccccc1 [Compound C1] : 0

API: value(readout= Adverse reaction: Systemic stiffness, Convulsions, Opisthotonus, system= Sprague-Dawley rats, query= C/C=C\C(=O)c1cncn1[C@H](C)c1ccccc1 [Compound C55] ) 7

====

As shown below, each of these compounds has a reported Minimal lethal dose value.
System: Sprague-Dawley rats
TEST: animal or person
CONDITION CONTEXT: rats
Description: Adult male Sprague-Dawley rats (250-300 g) were selected for the experiment. […] The anesthesia effects of the compounds were assessed in rats using a LORR assay and a period >30 s was considered as an indicator of general anesthesia.

CCOC(=O)c1cc(F)nn1[C@H](C)c1ccccc1 : >9 mg/kg
C[C@H](c1ccccc1)n1nccc1C(=O)OCC1CC1 : >8 mg/kg
CCOC(=O)c1ccnn1[C@H](C)c1ccccc1 : >16 mg/kg
CC#CCOC(=O)c1ccnn1[C@H](C)c1ccccc1 : >11 mg/kg
CCOC(=O)c1c(F)cnn1[C@H](C)c1ccccc1 : >12 mg/kg

Lab note: need Minimal lethal dose with Sprague-Dawley rats for entry `COC(=O)C1=C(OC(=O)c2c(C(F)(F)F)cnn2[C@H](C)c2ccccc2)CCCC1` , please look it up. >13 mg/kg

What Minimal lethal dose appears in the records for this compound with Sprague-Dawley rats? `C#CC1(OC(=O)c2cc(F)nn2[C@H](C)c2ccccc2)COC1` >14 mg/kg

Kindly state the measured Minimal lethal dose obtained for COC(=O)C1(OC(=O)c2cncn2[C@H](C)c2ccccc2)CC1 [CPMM, cyclopropyl methoxycarbonyl metamidate, reference compound] with Sprague-Dawley rats. >7.8 mg/kg

Minimal lethal dose of `COC(=O)C1=C(OC(=O)c2cc(F)nn2[C@H](C)c2ccccc2)CCCC1` on Sprague-Dawley rats? >12 mg/kg

====

Test system: Sprague-Dawley rats
TEST: Pharmacological effect and adverse reactions under the equivalent dose (2ED50), Group C compounds
Type: in vivo
CONDITION CONTEXT: equivalent dose (2ED50), number of rats of n = 8
QUANTITY NAME: Adverse reaction: Slower breathing, Tetany convulsion
Respond numerically, and do not add a unit to the figure.

Answered cases to consult:
C[C@H](c1ccccc1)n1cnc(F)c1C(=O)COCC1CCC1 : 0
CC#CCOCC(=O)c1ccnn1[C@H](C)c1ccccc1 : 0
CC#CCC(=O)c1cncn1[C@H](C)c1ccccc1 : 0
CCOCC(=O)c1cncn1[C@H](C)c1ccccc1 : 0
C#CCOCC(=O)c1cncn1[C@H](C)c1ccccc1 : 0

Fill in: Adverse reaction: Slower breathing, Tetany convulsion of `CCOCC(=O)c1ccnn1[C@H](C)c1ccccc1` is ___ 0

Would you kindly share the measured Adverse reaction: Slower breathing, Tetany convulsion for `COCC(=O)c1cncn1[C@H](C)c1ccccc1` ? 0

What does the record list as Adverse reaction: Slower breathing, Tetany convulsion for `C#CCOCC(=O)c1cc(F)nn1[C@H](C)c1ccccc1` ? 0

For the compound `CC(=O)COCC(=O)c1cncn1[C@H](C)c1ccccc1` , what Adverse reaction: Slower breathing, Tetany convulsion is on record? 0

# input compound: `C[C@H](c1ccccc1)n1cnc(F)c1C(=O)COCC1CC1` ; wanted: its Adverse reaction: Slower breathing, Tetany convulsion 0
